target: MAGI1_1, Q96QZ7; test: holdup assay; set-up: key: below the threshold = too weak to quantify, mostly under pKd 3.1 to 4; conditions: plain residues with an end cap or a label only (N-terminal biotin on a linker: ado-ado)
Sequence (Q96QZ7 1-106): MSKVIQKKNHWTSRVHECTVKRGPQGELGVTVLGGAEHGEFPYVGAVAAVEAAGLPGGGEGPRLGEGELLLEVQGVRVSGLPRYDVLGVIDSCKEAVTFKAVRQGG
OBSERVABLE: pKd

Below: 4 binders and their reported pKd.
1. NISARRFTLC [FAM167B, Q9BTA0]: 3.59
2. THHRKIHTRV [ZNF599, Q96NL3]: 3.58
3. PLPPEEESWV [GAS2L2, Q8NHY3]: below the threshold
4. DYSNLRETDI [ADRA1D, P25100]: below the threshold

Next, consider the following binder.
**Query** Form field: reported pKd of QKNKDREYYV [NRXN3, Q9HDB5]
**Result** below the threshold

Hey, just so you know, these numbers are from paper PMC9482650.
